Assign %Inh to each entry below.
Tested on: AKT2
Settings: concentration: 1 μM, replicates: in singlicate; n = 1;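 further: KINOMEscan kinase panel screen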
Give bare numbers, in %.

COc1cc(Nc2nccc(-c3c(-c4cccc(NC(=O)c5c(F)cccc5F)c4)nn4ncccc34)n2)cc(OC)c1OC [GSK327238] | 11
CCc1ccc(-c2ccc3c(c2)-c2c(cnn2C)S(=O)(=O)N3C)cc1 | 0
CN(C)Cc1ccc(-c2ccc3c(Nc4ccc(Oc5ccccn5)cc4)ccnc3c2)o1 [GW567148] | 0
COc1cc(Nc2nccc(N3CCC(NC(=O)c4cc5ccccc5s4)C3)n2)cc(OC)c1OC (centres unmarked) [GSK1379760] | 8
CNC(=O)c1ccccc1Nc1nc(Nc2ccc(N3CCOCC3)cc2)ncc1Cl.Cl [GSK1576028] | 62
CN1CCN(CCCNc2nccc(-c3c(-c4ccc(F)cc4)nn4cc(C(F)(F)F)ccc34)n2)CC1 [GW621581] | 0

Consider the following items and state reported %Inh for each.
1. O=C(Nc1n[nH]c2cc(-c3ccoc3)ccc12)C1CC1 [SB-738481]
2. O=C(NC1CCN(c2ccnc(Nc3ccc(F)cc3)n2)C1)c1cc2ccccc2s1 (centres unmarked) [GSK1379716]

## Result
0
16

====

Tested on: AAK1
Conditions: concentration: 1 μM, replicates: in singlicate; n = 1
I'd be grateful if you could share measured %Inh for these entries.

Below are worked cases with known answers.
COc1ccc(Nc2nccc(NCCNC(=O)c3cc4ccccc4s3)n2)cc1 [GSK1379896] | 7%
O=C(O)C(F)(F)F.O=C(O)C(F)(F)F.O=c1[nH]ccc2nc(N[C@@H]3CCCNC3)nc(Nc3ccc(S(=O)(=O)N4CCOCC4)cc3)c12 [GSK2177277] | 91.6%

Here is another molecule to look at.
## Task Given the molecule CN(c1ccc(NC(=O)Nc2cc(C(F)(F)F)ccc2F)cc1)c1ccnc(Nc2ccc(S(N)(=O)=O)cc2)n1 [GW809893] , what is its reported %Inh?
## Result 9%

====

Tested on: IKK-epsilon
Construct: gene IKBKE
Settings: concentration: 1 μM, replicates: in singlicate; n = 1
Response field label: string, one of Yes (%Inh strictly below 7%) or No.

Known results for molecules:
Cl.Cl.NCC(NC(=O)c1cc(-c2ccccc2)c(-c2ccnc3[nH]ccc23)s1)c1ccccc1 (centres unmarked) [GSK1321561] | Yes
O=C(NC1CCN(c2ccnc(Nc3ccc(F)cc3)n2)C1)c1cc2ccccc2s1 (centres unmarked) [GSK1379716] | No
Cc1ccc(F)c(C(=O)Nc2cccc(-c3nn4ccccc4c3-c3ccnc(Nc4cccc(F)c4)n3)c2)c1F [GSK361061] | No
Nc1ncnc2c1nc(-c1ccccc1)n2-c1ccccc1 [SKF-97293] | No
Cl.c1ccc(-c2ccc3c(Nc4ccc5[nH]ncc5c4)ccnc3c2)nc1 [GW440137] | No

Let us examine a further case.
## Task Criterion: %Inh strictly below 7%. Is it met by Cc1occc1-c1ncc(OC[C@@H](N)Cc2c[nH]c3ccccc23)cc1-c1ccc2[nH]nc(C)c2c1.O=C(O)C(F)(F)F [GSK682037] ?
## Result Yes

====

Would you mind telling me the reported %Inh of each entry?
Tested on: PLK2
Settings: concentration: 1 μM, replicates: in singlicate; n = 1

Below: 5 compounds and their reported %Inh.
Cc1ccc(C(=O)N2CC[C@@H](O)C2)cc1-n1c(C)cc(OCc2ccc(F)cc2F)c(Br)c1=O | 0%
COCCOCCOc1cc2ncc3c4ccc(C#N)cc4[nH]c3c2cc1OC | 0%
CCn1c(-c2nonc2N)nc2c(C#CC(C)(C)O)ncc(OCCCCN)c21.O=C(O)C(F)(F)F.O=C(O)C(F)(F)F | 0%
CC(C)(C)c1ccc2nccc(Nc3cccc(O)c3)c2c1 | 0%
COc1cccc(C2=C(Nc3ccc(Cl)c(C(=O)O)c3)C(=O)NC2=O)c1 | 100%

# per-item lookup of %Inh; items listed below
1. COc1ccc(-c2coc3ccc(-c4nnc(SCc5ccc(OC)c(C(F)(F)F)c5)o4)cc23)cc1
2. Cc1ccc(C)c(NC(=O)NC2CCN(c3ccnc(Nc4ccc(F)cc4)n3)C2)c1 (centres unmarked)
3. COc1cccc(NC(=O)NC2CCN(c3ccnc(Nc4cc(OC)c(OC)c(OC)c4)n3)C2)c1 (centres unmarked)

## Result
1. 15%
2. 0%
3. 0%

====

Test system: PKMYT1
Conditions: concentration: 1 μM, replicates: in singlicate; n = 1
I'd be grateful if you could share measured %Inh for these entries.
Write the figure, then the unit, nothing else.

FC(F)(F)c1ccc(/C=C/c2cncnc2Nc2ccc3[nH]c(Cc4ccccc4)nc3c2)cc1 | 25%
CN(C)S(=O)(=O)c1cc(-c2ccc3nccc(-c4cccc(S(N)(=O)=O)c4)c3c2)cnc1N | 0%
COc1cccc(C2=C(Nc3ccc(Cl)c(C(=O)O)c3)C(=O)NC2=O)c1 | 4%
O=C(Nc1n[nH]c2nc(-c3ccc(O)cc3)ccc12)C1CC1 | 0%
CC(C)(C)c1ccc2nccc(Nc3cccc(O)c3)c2c1 | 0%
Cc1ccc(F)c(C(=O)Nc2cccc(-c3nn4ccccc4c3-c3ccnc(Nc4cccc(F)c4)n3)c2)c1F | 17%
CC(C)c1nc(-c2cccc(NS(=O)(=O)c3c(F)cccc3F)c2F)c(-c2ccnc(Nc3ccc(N4CCOCC4)nc3)n2)s1 | 24%

Query compound follows.
## Task Returns the measured %Inh for the input compound. Input: COc1ccc(CNC(=O)NC2CCN(c3ccnc(Nc4ccc(F)cc4)n3)CC2)cc1
## Result 0%

====

Could you please report measured %Inh for the items listed next?
Test system: EPHA1
Settings: concentration: 1 μM, replicates: in singlicate; n = 1
Give bare numbers, in %.

COc1cc(Nc2nccc(N3CCC(NC(=O)Nc4cccc(C(C)=O)c4)C3)n2)cc(OC)c1OC (stereo not shown) [GSK1379753] | 5

Required: %Inh, one value per compound below.
1. COc1ccc(Nc2nccc(N3CCC(NC(=O)Nc4cccc(OC)c4)C3)n2)cc1 (stereo not shown) [GSK1379742]
2. Cc1ccc(F)c(C(=O)Nc2cccc(-c3nn4ccccc4c3-c3ccnc(Nc4cccc(F)c4)n3)c2)c1F [GSK361061]
3. Nc1n[nH]c2cnc(-c3ccccc3)cc12 [SB-642124]

## Result
[10, 32, 26]

====

Test system: MARK4
Conditions: concentration: 1 μM, replicates: in singlicate; n = 1
MEASURED ATTRIBUTE: %Inh

Cn1cc(-c2ccc3c(c2)CCN3C(=O)Cc2cccc(Cl)c2)c2c(N)ncnc21 | 11%
CC(C)c1nc(-c2cccc(NS(=O)(=O)c3c(F)cccc3F)c2F)c(-c2ccnc(Nc3ccc(N4CCOCC4)nc3)n2)s1 | 80%
O=c1[nH]cc(-c2ccc(N3CCOCC3)cc2)c2sc(-c3cn[nH]c3)cc12 | 0%
Cc1ccc(C(=O)N2CC[C@@H](O)C2)cc1-n1c(C)cc(OCc2ccc(F)cc2F)c(Br)c1=O | 0%
Oc1cc(Nc2ccnc3cc(I)ccc23)ccc1F | 5%

// next item, %Inh requested
## Task Request: %Inh, test system MARK4, entry c1ccc(-c2n[nH]cc2Nc2ccnc3ccccc23)nc1
## Result 1%

====

For each of the compounds below, state its %Inh.
System: LKB1
Construct: gene STK11
Settings: concentration: 1 μM, replicates: in singlicate; n = 1
One number for each entry, in %.

Example entries begin here.
c1ccc(-c2cnc3nccnn23)cc1 | 0
Cc1ccc(C(=O)Nc2ccc(Nc3ccnc4cc(-c5nccs5)ccc34)cc2O)cc1.Cl | 0
COc1ccc(Nc2nccc(NCCNC(=O)c3cc4ccccc4s3)n2)cc1 | 1
Nc1ncnc2c1nc(-c1ccccc1)n2-c1ccccc1 | 60

Please examine the following record next.
## Task // query %Inh value for entry Fc1ccc(-c2ncn(C3CCNCC3)c2-c2ccnc(Oc3ccc(-c4ccccc4)cc3)n2)cc1
## Result 0

====

System: MKNK1
Conditions: concentration: 1 μM, replicates: in singlicate; n = 1
# %Inh >= 2% gives true (1), anything below gives false (0)

Look over these answered cases.
CCc1ccc(-c2ccc3c(c2)-c2c(cnn2C)S(=O)(=O)N3C)cc1 | false (0)
CCn1c(-c2nonc2N)nc2c(C#CC(C)(C)O)nc(OC[C@H](N)c3ccccc3)cc21 | true (1)
Nc1ncc(-c2ccc3nccc(-c4ccncc4)c3c2)cc1S(=O)(=O)N1CCOCC1 | false (0)
CSc1cccc2c(-c3ccncn3)c(-c3ccc(F)cc3)nn12 | true (1)
Nc1n[nH]c2cnc(-c3ccccc3)cc12 | true (1)
Cn1cc(-c2ccc3c(c2)CCN3C(=O)Cc2cccc(Cl)c2)c2c(N)ncnc21 | true (1)

## Task Assess whether reported %Inh for CN(C)Cc1ccc(-c2ccc3c(Nc4ccc(Oc5ccccn5)cc4)ccnc3c2)o1 sits at 2% or higher.
## Result false (0)

====

Test system: RIPK4
Settings: concentration: 1 μM, replicates: in singlicate; n = 1
MEASURED ATTRIBUTE: %Inh (%)
Numbers only, in %.

Observe how each entry below is paired with its result.
Cc1ccc(F)c(C(=O)Nc2cccc(-c3nn4ccccc4c3-c3ccnc(Nc4cccc(F)c4)n3)c2)c1F [GSK361061] | 4
O=C(Nc1n[nH]c2nc(-c3ccc(O)cc3)ccc12)C1CC1 [SB-710363] | 39
COc1cc(Nc2nccc(N3CCC(NC(=O)c4cc5ccccc5s4)C3)n2)cc(OC)c1OC (centres unmarked) [GSK1379760] | 0

Please supply %Inh for each of the following items, keeping them in order.
1. COc1cc(Nc2ncc3c(C)nc(-c4cc5ccccc5[nH]4)n3n2)cc(OC)c1OC [GW869516]
2. Cc1cccc(Nc2nc(N[C@H]3CCNC3)ncc2C(N)=O)c1.Cl [GSK2197149]
3. COc1cc(Nc2nccc(-c3c(-c4cccc(NC(=O)c5c(F)cccc5F)c4)nn4ccccc34)n2)cc(OC)c1OC [GSK323521]
4. Clc1ccc(-c2nn3ncccc3c2-c2ccnc(Nc3ccc4c(c3)OCCO4)n2)cc1 [GW829116]
5. Cc1occc1-c1ncc(OC[C@@H](N)Cc2c[nH]c3ccccc23)cc1-c1ccc2[nH]nc(C)c2c1.O=C(O)C(F)(F)F [GSK682037]

## Result
1: 0; 2: 90.7; 3: 0; 4: 0; 5: 0
